Data provenance: patent US9765069B2

# Test system: human embryonic kidney 293 cells
# METHOD: in vitro toxicities against human embryonic kidney 293 cells
# Format: cell-based
# CONDITION_SUMMARY: human embryonic kidney 293 cells
# Excerpt: These properties can be determined according to techniques that are well known in the art.
Hek293 (LD50, μM) reference
OBSERVABLE: Hek293 (LD50, μM)

INSERT INTO measurements (molecule, study_target, value_measured) VALUES
  ('CCCCCCCCCC(O)=C1C(=O)C(CCSC)N(C(=O)Cc2cccs2)C1=O (centres unmarked) [24m]', 'human embryonic kidney 293 cells', '30.3 µM'),
  ('CCCCCCCC(O)=C1C(=O)C(CCSC)N(C(=O)C2CCCCC2)C1=O (centres unmarked) [24e]', 'human embryonic kidney 293 cells', '>90.9 µM'),
  ('CCCCCC(O)=C1C(=O)C(CCSC)N(C(=O)CC(C)CC(C)(C)C)C1=O (centres unmarked) [24i]', 'human embryonic kidney 293 cells', '10.1 µM'),
  ('CCCCCCCC(O)=C1C(=O)C(CCSC)N(C(=O)CC(C)CC(C)(C)C)C1=O (centres unmarked) [24j]', 'human embryonic kidney 293 cells', '10.1 µM'),
  ('CCCCCCC(=O)N1CC(=O)C(=C(O)CC2CC3CCC2C3)C1=O (centres unmarked) [27a]', 'human embryonic kidney 293 cells', '90.9 µM');
